assay: self-splicing fitness, log relative to wild type (ln ratio); higher = more splicing; Tetrahymena group I intron in knt gene, E. coli kanamycin selection, DiMSum; sequences stand for … in CUCUCU…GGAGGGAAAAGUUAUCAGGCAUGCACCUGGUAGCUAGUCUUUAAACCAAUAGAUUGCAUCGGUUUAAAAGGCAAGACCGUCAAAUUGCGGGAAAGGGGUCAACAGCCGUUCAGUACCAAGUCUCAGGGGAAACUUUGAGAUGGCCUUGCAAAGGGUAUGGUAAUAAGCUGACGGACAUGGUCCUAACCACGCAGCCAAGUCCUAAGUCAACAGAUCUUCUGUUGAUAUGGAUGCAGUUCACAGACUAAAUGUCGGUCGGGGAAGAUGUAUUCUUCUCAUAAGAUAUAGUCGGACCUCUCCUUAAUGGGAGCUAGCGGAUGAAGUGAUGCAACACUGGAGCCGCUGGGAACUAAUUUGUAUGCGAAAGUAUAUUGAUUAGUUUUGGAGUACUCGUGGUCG; conditions: 30 °C;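 further: selection with 25 µg/mL kanamycin versus none on LB agar overnight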
Reported property: self-splicing fitness (ln)
// print number alone

-- ask Field request: self-splicing fitness (ln) | item: CUAAAGCAAUAUUACGAGCG
-- reply 0.136

-- ask Field request: self-splicing fitness (ln) | item: AAUAAGCAAUAUUACGAUGU
-- reply -0.62

-- ask Field request: self-splicing fitness (ln) | item: CAUUAGCAAUAUUACGAUUU
-- reply -2.32

-- ask Field request: self-splicing fitness (ln) | item: AAAUAGCAAUAUUACGGCCG
-- reply -0.799

-- ask Field request: self-splicing fitness (ln) | item: UUAGAGCAAUAUUACGGAGC
-- reply -3.62

-- ask Field request: self-splicing fitness (ln) | item: GUGGAGCAAUAUUACGGGGA
-- reply -3.12

-- ask Field request: self-splicing fitness (ln) | item: CCGCAGCAAUAUUACGGCAU
-- reply -3.29

-- ask Field request: self-splicing fitness (ln) | item: GCCUAGCAAUAUUACGCCUU
-- reply -1.15

-- ask Field request: self-splicing fitness (ln) | item: CGAAAGCAAUAUUACGGUAA
-- reply -2.13

-- ask Field request: self-splicing fitness (ln) | item: GGCGAGCAAUAUUACGCAAA
-- reply -2.13

-- ask Field request: self-splicing fitness (ln) | item: GUGUAGCAAUAUUACGAGUC
-- reply -1.74

-- ask Field request: self-splicing fitness (ln) | item: GCAGAGCAAUAUUACGCACC
-- reply -2.11

-- ask Field request: self-splicing fitness (ln) | item: GGUCAGCAAUAUUACGACCG
-- reply -1.89

-- ask Field request: self-splicing fitness (ln) | item: GCACAGCAAUAUUACGCAAC
-- reply -2.31

-- ask Field request: self-splicing fitness (ln) | item: UAUUAGCAAUAUUACGACAC
-- reply -1.54

-- ask Field request: self-splicing fitness (ln) | item: UUGAAGCAAUAUUACGAGAG
-- reply -1.5

-- ask Field request: self-splicing fitness (ln) | item: UGACAGCAAUAUUACGUCCC
-- reply -0.969

-- ask Field request: self-splicing fitness (ln) | item: UCCGAGCAAUAUUACGUUUC
-- reply -3.39

-- ask Field request: self-splicing fitness (ln) | item: CUCGAGCAAUAUUACGCAUU
-- reply -3.59

-- ask Field request: self-splicing fitness (ln) | item: AUGUAGCAAUAUUACGAGCG
-- reply -1.23

-- ask Field request: self-splicing fitness (ln) | item: ACUGAGCAAUAUUACGACUU
-- reply -1.4

-- ask Field request: self-splicing fitness (ln) | item: ACUUAGCAAUAUUACGUUGA
-- reply -4.69

-- ask Field request: self-splicing fitness (ln) | item: UGGGAGCAAUAUUACGAACU
-- reply -0.981

-- ask Field request: self-splicing fitness (ln) | item: AUCUAGCAAUAUUACGCGCG
-- reply -0.762

-- ask Field request: self-splicing fitness (ln) | item: ACAGAGCAAUAUUACGCCGG
-- reply -2.81

-- ask Field request: self-splicing fitness (ln) | item: GUAAAGCAAUAUUACGAGUC
-- reply -2.56

-- ask Field request: self-splicing fitness (ln) | item: GCGUAGCAAUAUUACGUGGG
-- reply -3.84

-- ask Field request: self-splicing fitness (ln) | item: CACGAGCAAUAUUACGUAAG
-- reply -3.62

-- ask Field request: self-splicing fitness (ln) | item: AUGUAGCAAUAUUACGGAUU
-- reply -1.57

-- ask Field request: self-splicing fitness (ln) | item: GUAAAGCAAUAUUACGAGGU
-- reply -3.07

-- ask Field request: self-splicing fitness (ln) | item: GAAUAGCAAUAUUACGUUGU
-- reply -3.27

-- ask Field request: self-splicing fitness (ln) | item: AGUUAGCAAUAUUACGUCUA
-- reply -0.594

-- ask Field request: self-splicing fitness (ln) | item: AGGUAGCAAUAUUACGUUUA
-- reply -2.15

-- ask Field request: self-splicing fitness (ln) | item: UCCCAGCAAUAUUACGAGAC
-- reply -3.6

-- ask Field request: self-splicing fitness (ln) | item: UUUAAGCAAUAUUACGUUCU
-- reply -1.53

-- ask Field request: self-splicing fitness (ln) | item: GCUAAGCAAUAUUACGCAUA
-- reply -1.97

-- ask Field request: self-splicing fitness (ln) | item: UUACAGCAAUAUUACGGAAG
-- reply -3

-- ask Field request: self-splicing fitness (ln) | item: GGGCAGCAAUAUUACGGAUA
-- reply -2.63

-- ask Field request: self-splicing fitness (ln) | item: CGUCAGCAAUAUUACGGAUC
-- reply -1.12

-- ask Field request: self-splicing fitness (ln) | item: AACCAGCAAUAUUACGUGAC
-- reply -2.59

-- ask Field request: self-splicing fitness (ln) | item: AACUAGCAAUAUUACGUAAC
-- reply 0.169

-- ask Field request: self-splicing fitness (ln) | item: CCGUAGCAAUAUUACGUGAG
-- reply -3.11

-- ask Field request: self-splicing fitness (ln) | item: GGUUAGCAAUAUUACGUUGA
-- reply -2

-- ask Field request: self-splicing fitness (ln) | item: AGACAGCAAUAUUACGCUCC
-- reply -3.32

-- ask Field request: self-splicing fitness (ln) | item: ACUAAGCAAUAUUACGCCUA
-- reply -1.41

-- ask Field request: self-splicing fitness (ln) | item: CGUCAGCAAUAUUACGGCGA
-- reply -1.88
